- Protocol: Water solubility by shake flask method with HPLC analysis
- Assay type: physicochemical
- Condition details: distilled water, 25 °C, thermodynamic from solid
Measured endpoint: solubility at 24 h

Which solubility at 24 h value belongs to CN1CC[C@H](c2c(O)cc(O)c3c(=O)cc(/C=C/c4c(Cl)cccc4Cl)oc23)[C@H](O)C1 [Compound of formula A] ?
10 to 20 µg/mL

---

- Protocol: in vivo
- Condition details: male, BALB/c, mouse, po, 50 mg/kg
Measured endpoint: Tmax (h)
One number for each entry, in h.

Which Tmax value belongs to CN1CC[C@H](c2c(O)cc(O)c3c(=O)cc(/C=C/c4c(Cl)cccc4Cl)oc23)[C@H](O)C1 [Compound of formula A] ?
1

---

- Protocol: physchem
- Condition details: 37 °C, water, thermodynamic from solid
Measured endpoint: solubility at 120 min

Which solubility at 120 min value belongs to CN1CC[C@H](c2c(O)cc(O)c3c(=O)cc(/C=C/c4c(Cl)cccc4Cl)oc23)[C@H](O)C1 ?
10 to 20 µg/mL
